Every entry's value here was drawn from the Deep4Chem optical property database.

List of emission maximum values.
Experiment: solvent given as SMILES
Details: in CCCCCC
Unit nm implied. Number only.

Example results:
1) CC(C)(C)c1ccc2c(c1)c1cc(C(C)(C)C)ccc1n2-c1nc2ccccc2nc1-n1c2ccc(C(C)(C)C)cc2c2cc(C(C)(C)C)ccc21: 488.69
2) CCC1=C(C)C2=Cc3c4ccccc4c4n3[B-](c3ccc5cc6ccccc6cc5c3)(Oc3ccccc3-4)[N+]2=C1C (configuration not stated): 636
3) CC1=[N+]2C(=c3c4c5ccccc5cc5cccc(c6cc(C)n(c36)[B-]2(F)F)c54)C=C1: 637

Prompt line: I would be grateful if you could share the reported emission maximum for Cc1ccc(/C(C#N)=C/c2cc(/C=C(\C#N)c3ccc(C)cc3)c(-c3ccc(N(c4ccccc4)c4ccccc4)cc3)cc2-c2ccc(N(c3ccccc3)c3ccccc3)cc2)cc1 .
Response line: 453

Prompt line: # iterate: N#Cc1c(-n2c3ccccc3c3ccccc32)c(-n2c3ccccc3c3ccccc32)cc(-n2c3ccccc3c3ccccc32)c1-n1c2ccccc2c2ccccc21
Response line: 439.08

Prompt line: Again, but for CC(C)[Si](C#Cc1c2ccccc2c(C#C[Si](C(C)C)(C(C)C)C(C)C)c2nc3ccccc3nc12)(C(C)C)C(C)C
Response line: 577

Prompt line: Please give the result for Nc1ccc(/C=C/c2cccnc2)cc1 too.
Response line: 390

Prompt line: Repeat with CC1CC=C(c2ccc(-c3cccs3)s2)CC1 (configuration not stated)
Response line: 408

Prompt line: Try the compound c1ccc(N(c2ccccc2)c2ccc(-c3cccc4nc5ccccc5cc34)cc2)cc1
Response line: 462

###

Experiment: solvent given as SMILES
Details: in ClCCl
recorded.metric: emission maximum (nm)
Just the number in nm, nothing appended.

Observe how each entry below is paired with its result.
1. COc1c2ccccc2c(OC)c2c1c1cc(Cl)ccc1n2C: 431
2. F[B-]1(F)n2c(c3cccc4cccc2c43)=Nc2ccc3ccccc3[n+]21: 536
3. CCCCC(CC)Cn1c2ccc(C(=C(C#N)C#N)c3ccccc3)cc2c2c(-c3ccc(Br)cc3)c3c(c(-c4ccc(Br)cc4)c21)c1cc(C(=C(C#N)C#N)c2ccccc2)ccc1n3CC(CC)CCCC (stereo unspecified): 597
4. CCOC(=O)c1ccc2nc(/N=N/c3ccc(N(CC)CC)cc3)sc2c1: 571
5. O=S1(=O)Nc2ccc3c(c2-c2ccccc21)-c1ccccc1S(=O)(=O)N3: 425
6. CCOC(=O)c1c(-c2c(Cl)c3cc(C)ccc3oc2=O)nn(-c2cccc(Cl)c2)c1C(=O)OCC: 420
7. CCc1cccc(CC)c1-c1c2ccccc2c(-c2c(CC)cccc2CC)c2cc3ccccc3cc12: 501
8. CC(C)(C)c1ccc2c(c1)sc1[n+]2[B-](F)(F)n2c(c3cccc4cccc2c43)=N1: 534

Prompt line: # input molecule: C(=C\c1cnc2ccccc2n1)/c1ccc(N2CCCCC2)cc1 ; wanted: its emission maximum
Response line: 583

Prompt line: Please give the result for F[B-]1(F)n2c(-c3cccs3)cc(-c3ccccc3)c2N=C2C(c3ccccc3)=CC(c3cccs3)=[N+]21 too.
Response line: 740

Prompt line: Here is the next molecule: CC(=O)O[B-]1(OC(C)=O)OC(/C=C/C=C/c2ccccc2)=CC(/C=C/C=C/c2ccccc2)=[O+]1
Response line: 545

Prompt line: Record: FC(F)(F)c1ccc(-c2nnc(-c3cc(-n4c5ccccc5c5ccccc54)c(-n4c5ccccc5c5ccccc54)cc3-c3nnc(-c4ccc(C(F)(F)F)cc4)o3)o2)cc1
Response line: 519.92

Prompt line: Another molecule to check: C#Cc1ccc(-c2c3nc(c(-c4ccc(C#C)cc4)c4ccc([nH]4)c(-c4cc(C(C)(C)C)cc(C(C)(C)C)c4)c4cc(c(-c5cc(C(C)(C)C)cc(C(C)(C)C)c5)c5ccc2[nH]5)C=N4)C=C3)cc1
Response line: 744

Prompt line: For CN(C)c1cc(-c2ccc(C#Cc3cc[n+](C)cc3)cc2)cc2ccccc12 then?
Response line: 510

Prompt line: Check c1ccc(-c2nc(-c3ccccc3)nc(-c3ccc(-n4c5ccccc5c5cc(-n6c7ccccc7c7ccccc76)ccc54)c4c5ccccc5n(-c5ccccc5)c34)n2)cc1 too.
Response line: 531.36

Prompt line: Now the same for COc1cccc2cc(C#N)c(=N)oc12
Response line: 462

###

Measured emission maximum, listed per entry.
Test: solvent given as SMILES
Conditions: in Cc1ccccc1
State just the number; it will be interpreted in nm.

1) FC(F)(F)c1ccc(-c2nnc(-c3cc(-n4c5ccccc5c5ccccc54)c(-n4c5ccccc5c5ccccc54)cc3-c3nnc(-c4ccc(C(F)(F)F)cc4)o3)o2)cc1: 487
2) CCC1=C(C)C2=Cc3c4ccccc4c4n3[B-](c3ccc5cc6ccccc6cc5c3)(Oc3ccccc3-4)[N+]2=C1C (centres undefined): 641
3) CC(C)CCC[C@@H](C)[C@H]1CC[C@H]2[C@@H]3CC=C4C[C@@H](OC(=O)Oc5cc(/C=C/c6ccc(N(C)C)cc6)ccc5[N+](=O)[O-])CC[C@]4(C)[C@H]3CC[C@]12C: 554

Proceeding to the next molecule to report its emission maximum.
Prompt line: # emission maximum lookup, item COc1ccc(-c2ccc(-c3ccc(C#N)s3)s2)cc1
Response line: 450

###

Test: solvent given as SMILES
Conditions: in C1CCCCC1
Measured emission maximum accompanies every entry in the list below.
Could you give me the number in nm? Just the number is fine.

Answered cases to consult:
1) CCCCCCCC[Si](C)(C)c1cccc2ccccc12: 329
2) Cc1cc(=O)oc2c3c4c(cc12)CCCN4CCC3: 407
3) C=Cc1cccc(OC)c1: 327

Prompt line: For Cc1ccccc1 , what is its reported emission maximum?
Response line: 286.62

Prompt line: What do you have for Nc1ccc2c(C(F)(F)F)cc(=O)oc2c1 ?
Response line: 401

Prompt line: And CCC1=C(C)C(=O)n2c1cc1c(c(C)c(C(=O)OC)n1C)c2=O ?
Response line: 435

Prompt line: And what about the molecule [C-]#[N+]c1ccc(-c2ccc(NC)cc2)cc1 ?
Response line: 368

Prompt line: One more molecule: COc1ccc2c(c1)c1c(c3cc(OC)ccc32)=[N+]2C(=C(c3c(C)cc(C)cc3C)c3cc4c5cc(OC)ccc5c5ccc(OC)cc5c4n3[B-]2(F)F)C=1
Response line: 710

Prompt line: Cool, now CCCCCCCCOc1ccc2c3c(c4ccc(OCCCCCCCC)cc4c2c1)C(C)(C)c1ccccc1-3
Response line: 390

Prompt line: Entry CC(=O)c1c2c(cc3c(N(C)C)cccc13)CCC2 please
Response line: 480

Prompt line: What do you get for [C-]#[N+]c1ccc(-c2ccc(N)cc2)cc1 ?
Response line: 354

Prompt line: Similarly, C[Si](C)(c1ccc2cc3ccccc3cc2c1)[Si](C)(C)c1ccc2cc3ccccc3cc2c1 ?
Response line: 415

###

Assay: solvent given as SMILES
Conditions: in ClCCl
Property: emission maximum; scope: individual molecules
Give just the number in nm; leave the unit off.

Study these solved cases before continuing.
1. F[B-]1(F)n2c(c3cccc4cccc2c43)=Nc2cccc(Cl)[n+]21: 526
2. O=S(=O)(c1ccc(-c2ccc3c(c2)c2ccccc2n3-c2ccccc2)cc1)c1ccc(-c2ccc3c(c2)c2ccccc2n3-c2ccccc2)cc1: 415.93
3. CCOC(=O)CCCCCn1c2ccc(N)cc2c(=O)c2cc3c(cc21)c(=O)c1cc(N)ccc1n3CCCCCC(=O)OCC: 608

Prompt line: Could you tell me which emission maximum is on file for CCCCN(CCCC)c1ccc(C#Cc2cc(C#Cc3cc(C(F)(F)F)cc(C(F)(F)F)c3)c(C#Cc3cc(C(F)(F)F)cc(C(F)(F)F)c3)cc2C#Cc2ccc(N(CCCC)CCCC)cc2)cc1 ?
Response line: 556

Prompt line: Can you handle COc1ccc(-c2cnc3cccc(-c4ccc(C(C)=O)cc4)n23)cc1 next?
Response line: 537

Prompt line: How about this molecule: O=S(=O)(/N=c1\oc2cccc3c4c(-c5ccccc5)oc5cccc(c(c1-c1ccccc1)c23)c54)C(F)(F)F
Response line: 569

Prompt line: Please answer likewise for COc1ccc(/C=C/c2ccncn2)cc1
Response line: 418

Prompt line: Same for c1ccc2c(c1)CCc1c-2cnc2c1-c1ccccc1CC2
Response line: 363

###

Assay: solvent given as SMILES
Conditions: in C1CCOC1
Hi! Could you tag entries with emission maximum below 500 nm as Criterion met, and those at or above as Criterion not met? Much appreciated.

Solved entries (count: 3):
1) O=C(O)COc1ccc2[nH]c3c(c2c1)CCCC3=O: Criterion met
2) FP(F)(c1c2ccccc2cc2ccccc12)(c1c2ccccc2cc2ccccc12)c1c2ccccc2cc2ccccc12: Criterion met
3) CC1(C)CC(/C=C/c2ccc(N3CCOCCOCCOCCOCC3)cc2)=CC(=C(C#N)C#N)C1: Criterion not met

Prompt line: Please state whether emission maximum is below 500 nm for CCC1(CC)c2cc(B(c3c(C)cc(C)cc3C)c3c(C)cc(C)cc3C)ccc2-c2ccc(N(c3ccccc3)c3ccccc3)cc21
Response line: Criterion met

Prompt line: Next entry: CN(C)c1ccc2cc(C3=[O+][B-](F)(F)OC(c4ccccc4)=C3)ccc2c1
Response line: Criterion not met

Prompt line: Next record, please: C(=C\c1nc2ccccc2s1)/c1ccc(-c2nc3c4cccnc4c4ncccc4c3[nH]2)cc1
Response line: Criterion met

Prompt line: Next molecule: CCC1(CC)c2cc(Br)ccc2-c2c1c1c(c3c2C(CC)(CC)c2cc(-c4cccs4)ccc2-3)C(CC)(CC)c2cc(Br)ccc2-1
Response line: Criterion met

Prompt line: Lookup c1ccc2c(c1)c1ccccc1n2-c1ccc2c(c1)c1ccccc1n2-c1ccc(-n2c3ccccc3c3cc(-n4c5ccccc5c5ccccc54)ccc32)cc1
Response line: Criterion met

Prompt line: Param item: O=S(=O)(c1ccc(-c2ccc3c(c2)c2ccccc2n3-c2ccccc2)cc1)c1ccc(-c2ccc3c(c2)c2ccccc2n3-c2ccccc2)cc1
Response line: Criterion met

Prompt line: Could you do the same for Cc1cc(C)n2c1C=C1c3ccccc3C(c3[nH]c4ccccc4c3C)=[N+]1[B-]2(F)F , please?
Response line: Criterion not met

Prompt line: Next molecule: [C-]#[N+]c1ccc(-c2ccc(N)cc2)cc1
Response line: Criterion met

Prompt line: Also need CCC1=C(C)C2=C(c3cc(C(=O)Cl)cc(C4=C5C(C)=C(CC)C(C)=[N+]5[B-](F)(F)n5c(C)c(CC)c(C)c54)c3)c3c(C)c(CC)c(C)n3[B-](F)(F)[N+]2=C1C , thanks.
Response line: Criterion not met

Prompt line: Also need COc1cc(OC)cc(C2=C3C(C)=C(I)C(C)=[N+]3[B-](F)(F)n3c(/C=C/c4ccsc4)c(I)c(C)c32)c1 , thanks.
Response line: Criterion not met

Prompt line: Then c1ccc(N2c3ccccc3Sc3cc(-c4cccc5nc6ccccc6cc45)ccc32)cc1 ?
Response line: Criterion met

Prompt line: Moving on to N#CC1=C(c2ccc(-c3cccs3)s2)CCC1
Response line: Criterion met
